Data credit: patent US9957267B2

Biological target: SSTR1 (Homo sapiens, UniProt P30872)
Construct: expressed in transfected cells
Sequence (P30872 whole entry): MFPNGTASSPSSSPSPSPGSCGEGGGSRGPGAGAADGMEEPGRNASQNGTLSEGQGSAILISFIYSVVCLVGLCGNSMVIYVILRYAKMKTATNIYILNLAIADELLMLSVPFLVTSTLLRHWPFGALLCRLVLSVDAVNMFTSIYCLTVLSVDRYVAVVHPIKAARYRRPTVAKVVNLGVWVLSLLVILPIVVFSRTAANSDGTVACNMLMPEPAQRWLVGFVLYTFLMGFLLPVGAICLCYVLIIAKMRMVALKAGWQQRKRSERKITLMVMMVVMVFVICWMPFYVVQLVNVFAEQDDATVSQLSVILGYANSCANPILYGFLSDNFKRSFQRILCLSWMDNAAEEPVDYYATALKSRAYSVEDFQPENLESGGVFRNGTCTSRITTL
Experiment: cAMP functional agonist assay, CHO cells expressing SSTR1
Format: cell-based
Quick list: EC50 per entry.

Compound | System under test | EC50
Cc1cc(C)cc(-c2cnc3ncn(-c4cccc(O)c4)c(=O)c3c2CN(C)C[C@@H]2CCN2)c1 | SSTR1 (Homo sapiens, UniProt P30872) | 0.1 to 10 µM
Cc1cc(C)cc(-c2cnc3ncn(-c4cccc(C(N)=O)c4)c(=O)c3c2CN(C)C[C@@H]2CCCN2)c1 | SSTR1 (Homo sapiens, UniProt P30872) | > 10 µM
CN(Cc1c(-c2cc(Cl)cc(CO)c2)cnc2ncn(-c3cccc(O)c3)c(=O)c12)C[C@@H]1CCCN1 | SSTR1 (Homo sapiens, UniProt P30872) | 0.1 to 10 µM
Cc1cc(F)cc(-c2cnc3ncn(-c4cccc(O)c4)c(=O)c3c2CN(C)C[C@@H]2CCCN2)c1 | SSTR1 (Homo sapiens, UniProt P30872) | 0.1 to 10 µM
Cc1cc(C)cc(-c2cnc3ncn(-c4cccc(O)c4)c(=O)c3c2CN(C)C[C@H]2CCCN2)c1 | SSTR1 (Homo sapiens, UniProt P30872) | > 10 µM
Cc1cc(C)cc(-c2cnc3ncn(-c4cccc(O)c4)c(=O)c3c2CN2CCCC2CN)c1 (stereo not shown) | SSTR1 (Homo sapiens, UniProt P30872) | 0.1 to 10 µM
Cc1cc(C)cc(-c2cnc3ncn(-c4cccc(O)c4)c(=O)c3c2CN(C)CC2CCCCN2)c1 (stereo not shown) | SSTR1 (Homo sapiens, UniProt P30872) | 0.1 to 10 µM
Cc1cc(C)cc(-c2cnc3ncn(-c4cc(C)cc(O)c4)c(=O)c3c2CN(C)C[C@@H]2CCCN2)c1 | SSTR1 (Homo sapiens, UniProt P30872) | 0.1 to 10 µM
Cc1cc(C)cc(-c2cnc3ncn(-c4cc(O)cc(F)c4)c(=O)c3c2CN(C)C[C@@H]2CCCN2)c1 | SSTR1 (Homo sapiens, UniProt P30872) | 0.1 to 10 µM
Cc1cc(C)cc(-c2cnc3ncn(-c4cccc(C#N)c4)c(=O)c3c2CN(C)C[C@@H]2CCCN2)c1 | SSTR1 (Homo sapiens, UniProt P30872) | 0.1 to 10 µM
